Ref: patent US20060063932A1

Catalogue of pKi values
# MEASURED_TARGET: human 5-HT2a receptors (Homo sapiens, UniProt P28223)
# Sequence (P28223 whole entry): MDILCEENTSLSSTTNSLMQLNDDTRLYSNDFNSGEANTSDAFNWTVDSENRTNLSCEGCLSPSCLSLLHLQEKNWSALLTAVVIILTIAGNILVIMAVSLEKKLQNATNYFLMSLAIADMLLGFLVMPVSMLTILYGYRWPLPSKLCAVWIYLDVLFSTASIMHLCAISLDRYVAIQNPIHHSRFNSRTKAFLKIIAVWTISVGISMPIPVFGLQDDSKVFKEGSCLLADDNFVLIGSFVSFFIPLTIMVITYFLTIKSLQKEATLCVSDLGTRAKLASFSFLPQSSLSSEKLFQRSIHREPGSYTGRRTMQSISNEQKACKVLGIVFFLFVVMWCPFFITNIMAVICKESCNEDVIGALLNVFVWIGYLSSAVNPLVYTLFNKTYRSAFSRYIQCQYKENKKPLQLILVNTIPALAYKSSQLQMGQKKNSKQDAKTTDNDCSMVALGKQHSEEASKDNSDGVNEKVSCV
# MEASUREMENT_DESCRIPTION: Competition radioligand binding, h5-HT2a ([3H]Ketanserin)
Quick note: pKi means taking -log10 of the concentration in moles per liter.

Need pKi of CN1CCC[C@H]1CCN(Cc1ccc(C(C)(C)C)cc1)Cc1cccc(O)c1 [Example 37] , thanks.
6.80

----------
# MEASURED_TARGET: human 5-HT6 (h5-HT6) receptors (Homo sapiens)
# Construct: purchased Receptor Biology, Inc. (Beltsville, Md.); host or cells: HEK-293 cells
# Sequence (P50406 whole entry): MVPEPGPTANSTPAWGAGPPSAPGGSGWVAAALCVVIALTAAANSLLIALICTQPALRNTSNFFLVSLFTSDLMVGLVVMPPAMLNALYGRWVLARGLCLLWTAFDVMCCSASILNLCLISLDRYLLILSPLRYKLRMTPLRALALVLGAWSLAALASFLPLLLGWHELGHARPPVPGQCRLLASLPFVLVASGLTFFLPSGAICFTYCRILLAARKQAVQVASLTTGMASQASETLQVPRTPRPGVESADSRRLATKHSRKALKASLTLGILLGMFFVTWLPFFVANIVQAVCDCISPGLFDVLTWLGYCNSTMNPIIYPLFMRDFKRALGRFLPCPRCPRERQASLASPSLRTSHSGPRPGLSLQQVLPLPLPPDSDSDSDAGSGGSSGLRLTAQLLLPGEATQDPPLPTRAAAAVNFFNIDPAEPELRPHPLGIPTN
# MEASUREMENT_DESCRIPTION: Competition radioligand binding, h5-HT6 ([3H]LSD)
# RUN_CONDITIONS: membranes of HEK-293 cells, 1 hr RT
Categorized via Ki: category 1 (below 70 nM), category 2 (70 nM to below 300 nM), category 3 (300 nM or more)

Worked cases, answers included:
COMPOUND	ASSIGNED_LABEL
CN1CCCC1CCN(Cc1cccc(O)c1)Cc1cccc(O)c1 (racemic) [Example 3]	category 3
CN1CCCC1CCN(Cc1ccccc1)Cc1cccc2ccccc12 (centres unmarked) [Example 25]	category 2
CN1CCCC1CCN(Cc1ccccc1)Cc1cccc(O)c1 (centres unmarked) [Example 29]	category 1
CN1CCC[C@H]1CCN(Cc1cccc(O)c1)Cc1ccc2ccccc2c1 [Example 34]	category 3
CCc1ccc(CN(CCC2CCCN2C)Cc2ccccc2)cc1 (centres unmarked) [Example 28]	category 2

Hi there! Could you help me figure out the category for COc1cccc(CN(CC[C@@H]2CCCN2C)Cc2ccc(Cl)cc2)c1 [Example 41] please?
category 2

Then Cc1cccc(CN(CCC2CCCN2C)Cc2ccccc2)c1 (centres unmarked) [Example 30] ?
category 1

Then CC(C)c1ccc(CN(CC[C@@H]2CCCN2C)Cc2ccc(Cl)cc2)cc1 [Example 46] ?
category 3
